Attribute: IC50
- measuredOn: recombinant human LFA-1 (LFA-1:ICAM-1) (Homo sapiens, UniProt P05107+P20701)
- Sequence (P20701 26-1170): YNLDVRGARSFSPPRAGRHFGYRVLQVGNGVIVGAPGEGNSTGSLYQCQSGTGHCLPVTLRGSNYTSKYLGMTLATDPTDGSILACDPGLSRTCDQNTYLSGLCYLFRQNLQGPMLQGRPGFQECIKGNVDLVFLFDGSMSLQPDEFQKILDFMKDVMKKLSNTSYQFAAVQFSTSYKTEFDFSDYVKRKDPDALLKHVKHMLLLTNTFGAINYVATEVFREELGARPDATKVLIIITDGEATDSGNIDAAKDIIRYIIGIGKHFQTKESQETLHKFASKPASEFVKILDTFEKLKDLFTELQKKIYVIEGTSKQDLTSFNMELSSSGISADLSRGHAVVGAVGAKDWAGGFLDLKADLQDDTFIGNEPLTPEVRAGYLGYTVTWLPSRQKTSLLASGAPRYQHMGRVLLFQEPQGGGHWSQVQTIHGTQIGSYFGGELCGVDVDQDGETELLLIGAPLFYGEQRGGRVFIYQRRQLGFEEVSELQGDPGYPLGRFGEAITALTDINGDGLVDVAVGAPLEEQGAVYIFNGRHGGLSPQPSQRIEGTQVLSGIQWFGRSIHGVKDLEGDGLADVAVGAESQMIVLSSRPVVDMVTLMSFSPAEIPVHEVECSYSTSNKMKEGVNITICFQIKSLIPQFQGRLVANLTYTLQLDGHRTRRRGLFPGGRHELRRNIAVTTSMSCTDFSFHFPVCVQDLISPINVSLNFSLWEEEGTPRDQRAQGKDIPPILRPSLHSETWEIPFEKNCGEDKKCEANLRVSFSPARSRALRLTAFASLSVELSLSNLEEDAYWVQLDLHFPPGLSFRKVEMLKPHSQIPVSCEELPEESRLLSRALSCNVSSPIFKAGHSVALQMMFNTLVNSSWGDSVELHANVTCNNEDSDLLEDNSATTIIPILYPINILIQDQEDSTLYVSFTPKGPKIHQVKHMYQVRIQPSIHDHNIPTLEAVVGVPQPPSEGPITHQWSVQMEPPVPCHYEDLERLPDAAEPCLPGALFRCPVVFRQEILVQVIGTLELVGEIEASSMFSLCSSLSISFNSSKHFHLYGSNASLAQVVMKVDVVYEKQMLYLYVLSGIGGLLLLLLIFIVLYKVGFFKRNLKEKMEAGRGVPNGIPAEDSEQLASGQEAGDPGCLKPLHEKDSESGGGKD
- Sequence (P05107 23-769): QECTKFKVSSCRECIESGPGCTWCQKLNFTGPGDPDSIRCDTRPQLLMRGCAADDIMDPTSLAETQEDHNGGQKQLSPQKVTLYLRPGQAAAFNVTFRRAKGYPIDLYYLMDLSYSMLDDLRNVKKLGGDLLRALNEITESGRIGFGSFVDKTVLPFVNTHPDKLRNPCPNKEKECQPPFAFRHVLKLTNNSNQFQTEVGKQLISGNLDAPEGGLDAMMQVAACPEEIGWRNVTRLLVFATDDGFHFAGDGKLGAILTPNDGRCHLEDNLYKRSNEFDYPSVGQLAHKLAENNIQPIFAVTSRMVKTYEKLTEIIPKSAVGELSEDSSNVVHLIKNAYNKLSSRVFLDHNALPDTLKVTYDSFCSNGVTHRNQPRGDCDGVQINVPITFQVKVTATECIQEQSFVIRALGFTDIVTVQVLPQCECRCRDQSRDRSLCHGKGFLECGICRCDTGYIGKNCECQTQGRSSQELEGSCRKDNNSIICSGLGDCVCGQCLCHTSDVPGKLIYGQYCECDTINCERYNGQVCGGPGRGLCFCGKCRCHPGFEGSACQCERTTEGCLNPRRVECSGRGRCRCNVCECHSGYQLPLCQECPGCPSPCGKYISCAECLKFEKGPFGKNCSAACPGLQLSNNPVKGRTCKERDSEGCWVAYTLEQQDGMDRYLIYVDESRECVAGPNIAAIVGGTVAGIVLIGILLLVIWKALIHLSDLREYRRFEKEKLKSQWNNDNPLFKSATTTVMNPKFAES
- experimentalProtocol: PLM2 antibody capture LFA-1:ICAM-1 assay
readout: IC50 (nM)

>>> endpointresult("C[C@H]1CCN[C@@H]1C(=O)NC[C@H](NC(=O)c1c(Cl)cc(CNC(=O)/C=C/c2ccco2)cc1Cl)C(=O)O")
4
>>> endpointresult("O=C(/C=C/c1ccco1)NCc1cc(Cl)c(C(=O)N[C@@H](CNC(=O)[C@H]2C[C@H](O)CN2)C(=O)O)c(Cl)c1")
3
>>> endpointresult("O=C(/C=C/c1ccco1)NCc1cc(Cl)c(C(=O)N[C@@H](CNC(=O)[C@@H]2CCCN2)C(=O)O)c(Cl)c1")
4
>>> endpointresult("O=C(/C=C/c1ccco1)NCc1cc(Cl)c(C(=O)N[C@@H](CNC(=O)[C@@H]2CSC(=S)N2)C(=O)O)c(Cl)c1")
2
>>> endpointresult("O=C(/C=C/c1ccco1)NCc1cc(Cl)c(C(=O)N[C@@H](CNC(=O)C2CSCN2)C(=O)O)c(Cl)c1 (some centres unmarked)")
3

----------
- measuredOn: recombinant human LFA-1 (LFA-1:ICAM-1) (Homo sapiens, UniProt P05107+P20701)
- experimentalProtocol: PLM2 antibody capture LFA-1:ICAM-1 assay
pIC50: −log10 of the molar value.
Known pIC50 of a selection of compounds
readout: pIC50

>>> endpointresult("CN(C[C@H](NC(=O)c1c(Cl)cc(CNC(=O)/C=C/c2ccco2)cc1Cl)C(=O)O)C(=O)[C@@H]1CCCN1 [Compound 35]")
8.05
>>> endpointresult("O=C(/C=C/c1ccco1)NCc1cc(Cl)c(C(=O)N[C@@H](CNC(=O)[C@@H]2CSCN2)C(=O)O)c(Cl)c1 [Compound 6]")
8.15
>>> endpointresult("O=C(N[C@@H](CNC(=O)[C@@H]1CSCN1)C(=O)O)c1c(Cl)cc(C(O)CCc2cccc(O)c2)cc1Cl (stereo partly shown) [Compound 36]")
8.70
>>> endpointresult("O=C(/C=C/c1ccco1)NCc1cc(Cl)c(C(=O)N[C@@H](CNC(=O)C2CCNCC2)C(=O)O)c(Cl)c1 [Compound 3]")
7.96
>>> endpointresult("O=C(/C=C/c1ccco1)NCc1cc(Cl)c(C(=O)N[C@@H](CNC(=O)[C@H]2NCC[C@@H]2O)C(=O)O)c(Cl)c1 [Compound 41]")
8.52
>>> endpointresult("CC(=O)N1CCC[C@H]1C(=O)NC[C@H](NC(=O)c1c(Cl)cc(CNC(=O)/C=C/c2ccco2)cc1Cl)C(=O)O [Compound 17]")
8.52
>>> endpointresult("O=C(/C=C/c1ccco1)NCc1cc(Cl)c(C(=O)N[C@@H](CNC(=O)[C@H]2C[C@@H](O)CN2)C(=O)O)c(Cl)c1 [Compound 12]")
8.70

----------
- experimentalProtocol: Serum/plasma protein binding (ultrafiltration, LC/MS-MS)
- Format: in vitro ADME
- experimentalContext: pH 7.4, 37° C., Centrifree ultrafiltration
readout: fraction unbound at 15 min, 10 µg/mL

>>> endpointresult("O=C(/C=C/c1ccco1)NCc1cc(Cl)c(C(=O)N[C@@H](CNC(=O)[C@H]2NCC[C@@H]2O)C(=O)O)c(Cl)c1")
0.152
>>> endpointresult("O=C(/C=C/c1ccco1)NCc1cc(Cl)c(C(=O)N[C@@H](CNC(=O)C2CSCN2)C(=O)O)c(Cl)c1 (some centres unmarked)")
0.086
>>> endpointresult("CC1CC[C@@H](C(=O)NC[C@H](NC(=O)c2c(Cl)cc(CNC(=O)/C=C/c3ccco3)cc2Cl)C(=O)O)N1 (some centres unmarked)")
0.17
>>> endpointresult("C[C@H]1CCN[C@@H]1C(=O)NC[C@H](NC(=O)c1c(Cl)cc(CNC(=O)/C=C/c2ccco2)cc1Cl)C(=O)O")
0.224
>>> endpointresult("CC(=O)N1CCC[C@H]1C(=O)NC[C@H](NC(=O)c1c(Cl)cc(CNC(=O)/C=C/c2ccco2)cc1Cl)C(=O)O")
0.154
>>> endpointresult("O=C(/C=C/c1ccco1)NCc1cc(Cl)c(C(=O)N[C@@H](CNC(=O)[C@@H]2CCCCN2)C(=O)O)c(Cl)c1")
0.228
>>> endpointresult("O=C(/C=C/c1ccco1)NCc1cc(Cl)c(C(=O)N[C@@H](CNC(=O)[C@@H]2CCCN2)C(=O)O)c(Cl)c1")
0.171
>>> endpointresult("O=C(/C=C/c1ccco1)NCc1cc(Cl)c(C(=O)N[C@@H](CNC(=O)[C@H]2CSCN2)C(=O)O)c(Cl)c1")
0.0749
>>> endpointresult("O=C(/C=C/c1ccco1)NCc1cc(Cl)c(C(=O)N[C@@H](CNC(=O)C2CCCO2)C(=O)O)c(Cl)c1 (some centres unmarked)")
0.072
>>> endpointresult("CN(C[C@H](NC(=O)c1c(Cl)cc(CNC(=O)/C=C/c2ccco2)cc1Cl)C(=O)O)C(=O)[C@@H]1CCCN1")
0.486
>>> endpointresult("O=C(/C=C/c1ccco1)NCc1cc(Cl)c(C(=O)N[C@@H](CNC(=O)C2CCNCC2)C(=O)O)c(Cl)c1")
0.192
>>> endpointresult("O=C(N[C@@H](CNC(=O)[C@@H]1CSCN1)C(=O)O)c1c(Cl)cc(C(O)CCc2cccc(O)c2)cc1Cl (some centres unmarked)")
0.0716
>>> endpointresult("O=C(N[C@@H](CNC(=O)[C@H]1C[C@@H](O)CN1)C(=O)O)c1c(Cl)cc(C(O)CCc2cccc(Cl)c2)cc1Cl (some centres unmarked)")
0.0681
>>> endpointresult("O=C(/C=C/c1ccco1)NCc1cc(Cl)c(C(=O)N[C@@H](CNC(=O)[C@H]2C[C@@H](O)CN2)C(=O)O)c(Cl)c1")
0.205
>>> endpointresult("O=C(/C=C/c1ccco1)NCc1cc(Cl)c(C(=O)N[C@@H](CNC(=O)[C@@H]2CSC(=O)N2)C(=O)O)c(Cl)c1")
0.0671
>>> endpointresult("O=C(/C=C/c1ccco1)NCc1cc(Cl)c(C(=O)N[C@@H](CNC(=O)[C@H]2CCCN2)C(=O)O)c(Cl)c1")
0.169
>>> endpointresult("O=C(/C=C/c1ccco1)NCc1cc(Cl)c(C(=O)N[C@@H](CNC(=O)[C@@H]2CSC(=S)N2)C(=O)O)c(Cl)c1")
0.0307
>>> endpointresult("O=C(/C=C/c1ccco1)NCc1cc(Cl)c(C(=O)N[C@@H](CNC(=O)[C@@H]2CSCN2)C(=O)O)c(Cl)c1")
0.0457
>>> endpointresult("O=C(/C=C/c1ccco1)NCc1cc(Cl)c(C(=O)N[C@@H](CNC(=O)[C@@H]2C[C@@H](O)CN2)C(=O)O)c(Cl)c1")
0.274
>>> endpointresult("O=C(/C=C/c1ccco1)NCc1cc(Cl)c(C(=O)N[C@@H](CNC(=O)[C@H]2C[C@H](O)CN2)C(=O)O)c(Cl)c1")
0.341
